Cited source for all entries: patent US10202343B2

- tgt: Human MIF (MIF tautomerase activity) (Homo sapiens)
- Construct: made in house
- assay: HPP tautomerase assay
- Assay type: biochemical
- test-context: Table 18; read-out: HPP IC50
pIC50: −log10 of the molar value.
value-kind: pIC50

Here are 5 compounds together with their reported answers.
>>> measured_result("COc1cccc(Cc2cn(-c3ccc(O)cc3)nn2)c1OC [MIF-084]")
3.28
>>> measured_result("COc1ccc(Cc2cn(-c3ccc(O)cc3)nn2)cc1 [MIF-086]")
4.19
>>> measured_result("Oc1ccc(-n2cc(Cc3ccccc3)nn2)cc1F [MIF-069]")
3.12
>>> measured_result("COc1cccc(C(=O)c2cn(-c3ccc(O)cc3)nn2)c1 [MIF-076]")
3.10
>>> measured_result("Oc1ccc(Cc2cn(-c3ccc(O)cc3)nn2)cc1 [MIF-087]")
3.16

[A] COc1ccc(Cc2cn(-c3ccc(O)cc3)nn2)cc1OC [MIF-090]
[B] Oc1ccc(-n2cc(Cc3ccccc3O)nn2)cc1 [MIF-071]
## Task Looking at A and B , which one comes out lower in pIC50 terms? Please identify the chosen entry by its label.
## Result B

* * *

- tgt: MIF-CD74 Binding (biotin-labeled recombinant human MIF, recombinant human MIF receptor CD74 ectodomain) (Homo sapiens)
- assay: MIF-CD74 binding (capture) assay
- test-context: Table 17; read-out: CD74 IC50
value-kind: IC50 (µM)
Give the quantity in µM, number only.

## Task Give its IC50 value. Item: `Oc1ccc2c(c1)oc1ccccc12`
## Result 900

* * *

Reported pIC50 values for a set of molecules
- tgt: Human MIF (MIF tautomerase activity) (Homo sapiens)
- Construct: made in house
- Sequence (P14174 2-115 limits assumed): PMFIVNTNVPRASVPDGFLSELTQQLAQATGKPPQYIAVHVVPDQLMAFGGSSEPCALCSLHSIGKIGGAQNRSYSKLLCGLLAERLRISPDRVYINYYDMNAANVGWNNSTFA
- assay: HPP tautomerase assay
- Format: biochemical
- test-context: Table 3; read-out: HPP IC50
Note on pIC50: it is the negative log10 of concentration, concentration in mol/L.

>>> measured_result("O=c1c2ccc(Br)cc2sn1-c1ccc(Cl)cc1 [Compound 36]")
4.96
>>> measured_result("CC(=O)OCc1cccc(-n2sc3cc(F)ccc3c2=O)c1 [Compound 33]")
5.64
>>> measured_result("O=c1c2cc(Br)ccc2sn1-c1ccc(Cl)cc1 [Compound 39]")
5.10
>>> measured_result("COc1ccc(-n2sc3cc(F)ccc3c2=O)cc1 [Compound 27]")
5.21
>>> measured_result("N#Cc1ccc2c(=O)n(-c3ccc(Cl)cc3)sc2c1 [Compound 37]")
5.51
>>> measured_result("COc1cccc(-n2sc3cc(F)ccc3c2=O)c1 [Compound 28]")
4.60
>>> measured_result("N#Cc1ccc2sn(-c3ccc(Cl)cc3)c(=O)c2c1 [Compound 40]")
4.72
>>> measured_result("COc1cccc(-n2sc3ccc(F)cc3c2=O)c1 [Compound 38]")
5.10
>>> measured_result("O=c1c2cc([N+](=O)[O-])ccc2sn1-c1ccc(Cl)cc1 [Compound 34]")
5.21
>>> measured_result("COc1ccccc1-n1sc2ccc(Cl)cc2c1=O [Compound 31]")
5.18

## Task Query (molecule): O=c1c2cc(F)ccc2sn1-c1cccc(O)c1 [Compound 32] ; field requested: pIC50
## Result 5.23

## Task Fill in the blank: the reported pIC50 of O=c1c2ccc(F)cc2sn1-c1ccc(Cl)cc1 [Compound 26] is ____.
## Result 5.38

* * *

- tgt: MIF-CD74 Binding (biotin-labeled recombinant human MIF, recombinant human MIF receptor CD74 ectodomain) (Homo sapiens)
- assay: MIF-CD74 binding (capture) assay
- test-context: Table 14; read-out: CD74 IC50
value-kind: pIC50
// field semantics: pIC50 = negative decimal log of concentration (mol/L)

## Task GET /values?readout=pIC50&item= `O=C(c1cc2ccccc2o1)N1CCc2ccccc21`
## Result 5.40
